test system: Becap37 (human breast cancer cell); experiment: MTT growth inhibition of human solid tumor cells, 72 h; type: cell-based; conditions: Homo sapiens
Recorded IC50, one value per entry.
measurementType: IC50 (ng/mL)

1. COC(=O)C[C@](O)(CCCC(C)(C)OC(=O)c1ccco1)C(=O)O[C@@H]1C(OC)=C[C@]23CCCN2CCc2cc4c(cc2[C@H]13)OCO4 [BS-HH-059]; 7
2. COC(=O)C[C@](O)(CCCC(C)(C)OC(=O)C1CCCC1)C(=O)O[C@@H]1C(OC)=C[C@]23CCCN2CCc2cc4c(cc2[C@H]13)OCO4 [BS-HH-077]; 7
3. COC(=O)C[C@](O)(CCCC(C)(C)OC(=O)c1cccnc1Cl)C(=O)O[C@@H]1C(OC)=C[C@]23CCCN2CCc2cc4c(cc2[C@H]13)OCO4 [BS-HH-066]; 20
4. COC(=O)C[C@](O)(CCCC(C)(C)OC(C)=O)C(=O)O[C@@H]1C(OC)=C[C@]23CCCN2CCc2cc4c(cc2[C@H]13)OCO4 [BS-HH-002, 6-acetylhomoharringtonine]; 5
5. COC(=O)C[C@](O)(CCCC(C)(C)OC(=O)c1scnc1C)C(=O)O[C@@H]1C(OC)=C[C@]23CCCN2CCc2cc4c(cc2[C@H]13)OCO4 [BS-HH-0721]; 3

* * *

test system: Kasumi-1 (acute myeloid leukemia M2 type, AML-M2); experiment: MTT growth inhibition of leukemia cells, 72 h; format: cell-based, human; settings: Homo sapiens, Kasumi 1, MTT
measurementType: log10 of IC90 (log10 of the value in ng/mL)

1) COC(=O)C[C@@](CCCC(C)(C)OC(C)=O)(OC(C)=O)C(=O)O[C@@H]1C(OC)=C[C@]23CCCN2CCc2cc4c(cc2[C@H]13)OCO4; 1.32
2) COC(=O)C[C@](O)(CCCC(C)(C)OC(=O)C1CC1)C(=O)O[C@@H]1C(OC)=C[C@]23CCCN2CCc2cc4c(cc2[C@H]13)OCO4; 0.70
3) COC(=O)C[C@@](CCCC(C)(C)OC(=O)c1cccs1)(OC(=O)c1cccs1)C(=O)O[C@@H]1C(OC)=C[C@]23CCCN2CCc2cc4c(cc2[C@H]13)OCO4; 2.60
4) COC(=O)C[C@](O)(CCCC(C)(C)OC(C)=O)C(=O)O[C@@H]1C(OC)=C[C@]23CCCN2CCc2cc4c(cc2[C@H]13)OCO4; 0.85
5) COC(=O)C[C@](O)(CCCC(C)(C)OC(=O)c1cccnc1Cl)C(=O)O[C@@H]1C(OC)=C[C@]23CCCN2CCc2cc4c(cc2[C@H]13)OCO4; 0.30

* * *

Catalogue of IC50 CaES-17 readings, one per entry.
tested on: CaES-17 (esophageal cancer cell); assay: MTT growth inhibition of human solid tumor cells, 72 h; assay type: cell-based
measurementType: IC50 CaES-17

1. COC(=O)C[C@@](CCCC(C)(C)OC(=O)c1ccccc1)(OC(=O)c1ccccc1)C(=O)O[C@@H]1C(OC)=C[C@]23CCCN2CCc2cc4c(cc2[C@H]13)OCO4; 3.93 µg/mL
2. COC(=O)C[C@](O)(CCCC(C)(C)OC(=O)c1cnoc1C)C(=O)O[C@@H]1C(OC)=C[C@]23CCCN2CCc2cc4c(cc2[C@H]13)OCO4; 0.38 µg/mL
3. COC(=O)C[C@@](CCCC(C)(C)OC(=O)/C=C/c1ccco1)(OC(=O)/C=C/c1ccco1)C(=O)O[C@@H]1C(OC)=C[C@]23CCCN2CCc2cc4c(cc2[C@H]13)OCO4; 0.61 µg/mL
4. COC(=O)C[C@](O)(CCCC(C)(C)OC(=O)C1CCCCC1)C(=O)O[C@@H]1C(OC)=C[C@]23CCCN2CCc2cc4c(cc2[C@H]13)OCO4; 0.039 µg/mL
5. COC(=O)C[C@@](CCCC(C)(C)OC(=O)c1scnc1C)(OC(=O)c1scnc1C)C(=O)O[C@@H]1C(OC)=C[C@]23CCCN2CCc2cc4c(cc2[C@H]13)OCO4; 1.24 µg/mL

* * *

system: K562/adr (drug-resistant, chronic myeloid leukemia, CML); assay: MTT growth inhibition of leukemia cells, 72 h; format: cell-based, human; conditions: Homo sapiens, K562/Adr, MTT
measurementType: IC50 (µg/mL)

1) COC(=O)C[C@](O)(CCCC(C)(C)OC(=O)c1ccco1)C(=O)O[C@@H]1C(OC)=C[C@]23CCCN2CCc2cc4c(cc2[C@H]13)OCO4; 0.03
2) COC(=O)C[C@](O)(CCCC(C)(C)OC(=O)Cc1ccccc1)C(=O)O[C@@H]1C(OC)=C[C@]23CCCN2CCc2cc4c(cc2[C@H]13)OCO4; 0.007
3) COC(=O)C[C@](O)(CCCC(C)(C)OC(=O)c1cccnc1Cl)C(=O)O[C@@H]1C(OC)=C[C@]23CCCN2CCc2cc4c(cc2[C@H]13)OCO4; 0.03
4) COC(=O)C[C@](O)(CCCC(C)(C)OC(=O)C1CCCC1)C(=O)O[C@@H]1C(OC)=C[C@]23CCCN2CCc2cc4c(cc2[C@H]13)OCO4; 0.01
5) COC(=O)C[C@@](CCCC(C)(C)OC(=O)c1cccs1)(OC(=O)c1cccs1)C(=O)O[C@@H]1C(OC)=C[C@]23CCCN2CCc2cc4c(cc2[C@H]13)OCO4; 0.32

* * *

# reported IC50; entries follow
system: Kasumi-1 (acute myeloid leukemia M2 type, AML-M2); test: MTT growth inhibition of leukemia cells, 72 h; assay type: cell-based, human; conditions: Homo sapiens, Kasumi 1, MTT
measurementType: IC50

1. COC(=O)C[C@](O)(CCCC(C)(C)OC(=O)c1scnc1C)C(=O)O[C@@H]1C(OC)=C[C@]23CCCN2CCc2cc4c(cc2[C@H]13)OCO4 [BS-HH-0721]; 2 ng/mL
2. COC(=O)C[C@](O)(CCCC(C)(C)OC(=O)Cc1ccccc1)C(=O)O[C@@H]1C(OC)=C[C@]23CCCN2CCc2cc4c(cc2[C@H]13)OCO4 [BS-HH-074]; 1 ng/mL
3. COC(=O)C[C@@](CCCC(C)(C)OC(=O)c1cccs1)(OC(=O)c1cccs1)C(=O)O[C@@H]1C(OC)=C[C@]23CCCN2CCc2cc4c(cc2[C@H]13)OCO4 [BS-HH-0572]; 65 ng/mL
4. COC(=O)C[C@@](CCCC(C)(C)OC(C)=O)(OC(C)=O)C(=O)O[C@@H]1C(OC)=C[C@]23CCCN2CCc2cc4c(cc2[C@H]13)OCO4 [BS-HH-001, 2,6-diacetylhomoharringtonine]; 6 ng/mL

* * *

system: Huh7 (human liver cancer cell); test: MTT growth inhibition of human solid tumor cells, 72 h; assay type: cell-based; settings: Homo sapiens, Huh-7
IC90 less than 0.05 µg/mL is MET; IC90 greater than or equal to 0.05 µg/mL is NOT MET.

1) COC(=O)C[C@](O)(CCCC(C)(C)OC(=O)c1scnc1C)C(=O)O[C@@H]1C(OC)=C[C@]23CCCN2CCc2cc4c(cc2[C@H]13)OCO4; MET
2) COC(=O)C[C@](O)(CCCC(C)(C)OC(=O)c1cccnc1Cl)C(=O)O[C@@H]1C(OC)=C[C@]23CCCN2CCc2cc4c(cc2[C@H]13)OCO4; MET
3) COC(=O)C[C@](O)(CCCC(C)(C)OC(=O)c1ccco1)C(=O)O[C@@H]1C(OC)=C[C@]23CCCN2CCc2cc4c(cc2[C@H]13)OCO4; NOT MET
4) COC(=O)C[C@@](CCCC(C)(C)OC(=O)c1cccs1)(OC(=O)c1cccs1)C(=O)O[C@@H]1C(OC)=C[C@]23CCCN2CCc2cc4c(cc2[C@H]13)OCO4; NOT MET

* * *

system: Becap37 (human breast cancer cell); assay: MTT growth inhibition of human solid tumor cells, 72 h; assay type: cell-based; details: Homo sapiens
measurementType: IC90

1) COC(=O)C[C@](O)(CCCC(C)(C)OC(=O)c1cccnc1Cl)C(=O)O[C@@H]1C(OC)=C[C@]23CCCN2CCc2cc4c(cc2[C@H]13)OCO4 [BS-HH-066]; 5.63 µg/mL
2) COC(=O)C[C@@](CCCC(C)(C)OC(=O)c1cccs1)(OC(=O)c1cccs1)C(=O)O[C@@H]1C(OC)=C[C@]23CCCN2CCc2cc4c(cc2[C@H]13)OCO4 [BS-HH-0572]; 9.75 µg/mL
3) COC(=O)C[C@](O)(CCCC(C)(C)OC(=O)C1CCCC1)C(=O)O[C@@H]1C(OC)=C[C@]23CCCN2CCc2cc4c(cc2[C@H]13)OCO4 [BS-HH-077]; 11.1 µg/mL
4) COC(=O)C[C@@](CCCC(C)(C)OC(C)=O)(OC(C)=O)C(=O)O[C@@H]1C(OC)=C[C@]23CCCN2CCc2cc4c(cc2[C@H]13)OCO4 [BS-HH-001, 2,6-diacetylhomoharringtonine]; 14 µg/mL
